- test.description: PRK clinical study, plasma pharmacokinetics of compound I (LC-MS/MS)
- Type: in vivo, human
- measurement.parameters: human, plasma, topical, 2.5 %, across 4 days of repeated QID dosing; read-out: plasma AUClast, range
measured.quantity: AUC(0-t)

- compound.string: "CC(C)c1nc2cc(O)ccc2c(=O)n1-c1ccc(C#N)cc1"
  readout.value: "0.261 to 14.5 ng·h/mL"

###

- test.description: PRK clinical study, residual compound I in bandage contact lens
- Format: in vivo, human
- measurement.parameters: human, bandage contact lens extract, topical, 0.925 mg, 0.55 mL extraction fluid, Day 4; read-out: mean concentration of compound I in bandage contact lens extract
measured.quantity: concentration at 4 day (ng/mL)

- molecule: "CC(C)c1nc2cc(O)ccc2c(=O)n1-c1ccc(C#N)cc1 [Compound I]"
  readout.value: 8500

Entry source: patent US20200390767A1
